Reported inhibition values follow for various molecules
Target: Prostaglandin E2 receptor EP2 subtype (Homo sapiens) (UniProt P43116)
Sequence (P43116 whole entry, looked up): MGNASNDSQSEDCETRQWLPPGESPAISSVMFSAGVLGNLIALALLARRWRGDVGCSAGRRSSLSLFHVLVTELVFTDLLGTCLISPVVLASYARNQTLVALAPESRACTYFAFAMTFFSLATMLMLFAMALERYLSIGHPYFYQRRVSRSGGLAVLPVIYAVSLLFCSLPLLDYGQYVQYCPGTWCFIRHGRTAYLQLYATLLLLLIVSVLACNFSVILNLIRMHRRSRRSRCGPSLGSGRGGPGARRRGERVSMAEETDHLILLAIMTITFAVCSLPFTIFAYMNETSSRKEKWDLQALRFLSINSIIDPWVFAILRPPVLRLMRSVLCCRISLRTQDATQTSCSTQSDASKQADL
Test: blockers of PGE2-driven EP2 cAMP signalling – TR-FRET cAMP, C6 glioma cells, primary screen (AID 1422);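 further: rat C6 glioma host cells with rolipram phosphodiesterase inhibitor present; the protocol text gives 20 µM as final concentration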
Conditions: C6 glioma cells expressing human EP2, cAMP TR-FRET; at 25 µM; stronger effect = higher value; cells stimulated with saturating PGE2
The campaign covered roughly 260,000 compounds. About 1,300 (0.5%) were called active. For the sample, actives were picked, then their nearest neighbours and some compounds at random.

# smilesText, recordedMeasurement
data = [
    ("O=[N+]([O-])c1cc([N+](=O)[O-])c2cccnc2c1O", "7.12% (inactive)"),
]

## Task Which inhibition is listed for `CCc1ccc2nc3sc(C(=O)NCc4ccc5c(c4)OCO5)c(N)c3cc2c1` ?
## Result 13.9% (inactive)

## Task # inhibition lookup, item `Cc1ccc(CN(Cc2cc3c(C)cc(C)cc3[nH]c2=O)C(=O)NC2CCCCC2)cc1`
## Result 8.55% (inactive)

## Task Need inhibition of `COC(=O)c1c(NC(=O)Cc2cccs2)sc(C(=O)Nc2cccc(Cl)c2)c1C` , thanks.
## Result 8.6% (inactive)

From: PubChem BioAssay AID1422
